Recorded values, source patent US20060094649A1.

- assayed.target: HLA-A*1101 (human)
- assay.notes: competition vs 125I probe, purified HLA
- stated.conditions: remark: other sources report otherwise
property: IC50 (µM)

{"binder": "LVHFLLLK [MAGE2/3.116 (8-mer)]", "quantity.unit": "µM", "value": 0.04}

I. KVYQGSYGFR [p53.101.V2]
II. YVFPVIFSK [MAGE3.138.V2]
III. KTYQGSYGFK [p53.101.K10]
IV. SSCMGGMNR [p53.240 (9-mer)]
V. KVYQGSYGFK [p53.101.V2K10]
Ask: Rank the 5 binders: largest IC50 first, smallest last. Answer by writing out the labels in the requested order.
Reply: I, III, V, IV, II
(I: 0.062 µM, III: 0.014 µM, V: 0.0092 µM, IV: 0.0043 µM, II: 0.003 µM)

P. SSCMGGMNRR [p53.240 (10-mer)]
Q. SSFSTTINK [MAGE2.69.K9]
R. KMFCQLAK [p53.132]
Ask: Arrange these 3 binders in increasing order of IC50. Quick reminder: the answer is the labels in the order asked.
Reply: Q, R, P
